system: MLCK; construct: gene MYLK3; conditions: concentration: 1 μM, replicates: in singlicate; n = 1;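 note: KINOMEscan kinase panel screen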
Can you tell me %Inh for the items I'm about to list?
Numbers only, in %.

>  <molecule>
Cc1c(Cn2c(C)nn3c(=O)cc(N4CCOC(C)C4)nc23)cccc1C(F)(F)F (stereo not drawn) [GSK2344444]

>  <%Inh (%)>
2

$$$$
>  <molecule>
Cl.Cl.Cl.Fc1ccc(-c2ncn(C3CCNCC3)c2-c2ccnc(Nc3ccccc3)n2)cc1 [SB-238039]

>  <%Inh (%)>
0

$$$$
>  <molecule>
COc1cc(Nc2nccc(N3CCC(NC(=O)c4cccc(NC(C)=O)c4)C3)n2)cc(OC)c1OC (stereo not drawn) [GSK1379754]

>  <%Inh (%)>
1

$$$$

Batch of 6 molecules: report %Inh for each.
1. COc1ccc(COc2cc(-n3cnc4ccccc43)sc2C(N)=O)cc1 [GSK1024304]
2. c1ccc(-c2cc(-c3c[nH]nc3-c3ccccn3)ccn2)cc1 [GW576604]
3. COCCNC(=O)c1ccc(-c2cc(C(=O)NC3CC3)cc(F)c2C)cc1 [GW868318]
4. Cn1ccc2ncnc(Oc3ccc(NC(=O)Nc4ccncc4)c(Cl)c3)c21
5. CN1c2ccc(CNc3ccc(F)cc3)cc2-c2c(cnn2C)S1(=O)=O
6. CCc1nc(-c2cccc(C)c2)c(-c2ccnc(NCc3ccccc3)c2)s1

1: 0; 2: 9; 3: 13; 4: 0; 5: 3; 6: 0

###

tested on: PIK3CB; conditions: concentration: 1 μM, replicates: in singlicate; n = 1
Field: %Inh. Provide a value for each of the compounds that follow.
One number for each entry, in %.

Below, 8 compounds whose answers are already recorded.
>  <compound>
O=C(NCCNc1ccnc(Nc2ccc(F)cc2)n1)Nc1ccccc1F

>  <unit-label>
%

>  <%Inh>
0

$$$$
>  <compound>
CN1c2ccc(NCc3ccc(F)cc3)cc2-c2c(cnn2C)S1(=O)=O

>  <unit-label>
%

>  <%Inh>
0

$$$$
>  <compound>
CN1c2ccc(CNc3ccc(F)cc3)cc2-c2c(cnn2C)S1(=O)=O

>  <unit-label>
%

>  <%Inh>
0

$$$$
>  <compound>
COc1cc2ncn(-c3cc(OCc4sccc4Cl)c(C(N)=O)s3)c2cc1OC

>  <unit-label>
%

>  <%Inh>
0

$$$$
>  <compound>
O=C(NCCCN1CCOCC1)c1cccc(Nc2nccc(Nc3ccc(Oc4ccccc4)cc3)n2)c1

>  <unit-label>
%

>  <%Inh>
18

$$$$
>  <compound>
CN(C(=O)c1ccc(-c2cc(-c3c[nH]nc3-c3ccccn3)ccn2)cc1)C1CCOCC1

>  <unit-label>
%

>  <%Inh>
0

$$$$
>  <compound>
COc1cc2c(cc1OC[C@@H](O)CO)ncc1c3ccc(C#N)cc3[nH]c21

>  <unit-label>
%

>  <%Inh>
0

$$$$
>  <compound>
Cc1cccc(Cn2ccn3c(=O)cc(N4CCOCC4)nc23)c1

>  <unit-label>
%

>  <%Inh>
100

$$$$

Field: %Inh. Fill in for each record below.
1. CC(=O)Nc1ccc(COc2ccc(Nc3ccnc4cc(-c5ccccn5)ccc34)cc2)cc1.Cl
2. [2H]C([2H])(c1cccc(C(F)(F)F)c1C)n1ccn2c(=O)nc(N3CCOCC3)cc12
3. c1ccc(-c2cc(-c3c[nH]nc3-c3ccccn3)ccn2)cc1
4. Fc1ccc(-c2ncn(CCCN3CCOCC3)c2-c2ccccn2)cc1
5. O=C(NOCC1CC1)c1ccc(F)c(F)c1Nc1ccc(I)cc1Cl
6. COc1cc(Nc2nccc(N3CCC(NC(=O)c4cccc(NC(C)=O)c4)C3)n2)cc(OC)c1OC (centres unmarked)
7. Cc1cccc(-c2nc(Nc3ccc4ncsc4c3)c3ccccc3n2)n1
8. Cc1nnc(-c2ccc3ncc(-c4ccc(S(C)=O)cc4)n3c2)o1 (centres unmarked)

100
97.5
0
0
0
0
0
64

###

system: MERTK; conditions: concentration: 1 μM, replicates: in singlicate; n = 1
measure: %Inh (%)
Answers are plain numbers, in %.

I'm hoping you can list %Inh for every molecule here, please.
1. O=C(c1ccc(-c2cc(-c3c[nH]nc3-c3ccccn3)ccn2)cc1)N1CCOCC1
2. Cl.Nc1ncnc2occ(-c3ccc(NC(=O)Nc4cc(C(F)(F)F)ccc4F)cc3)c12

1: 12; 2: 98.3

###

system: DAPK1; details: concentration: 1 μM, replicates: in singlicate; n = 1
Please provide measured %Inh for the entries that follow.
Numbers only, in %.

Your task in this section: give %Inh for each listed record.
1. N#Cc1ccc(-c2cc(-c3c[nH]nc3-c3ccccn3)ccn2)cc1
2. O=C(NCCNc1ccnc(Nc2ccc(F)cc2)n1)Nc1ccccc1F
3. Nc1nccc(-c2c(-c3ccc(F)cc3)ncn2C2CCN(CC(F)(F)F)CC2)n1
4. CC(C)Oc1ccc2c(-c3ccnc(Nc4ccc(N5CCN(C)CC5)cc4)n3)cnn2n1
5. c1ccc(-c2n[nH]cc2-c2ccnc3ccccc23)nc1
6. COc1cc2c(cc1OCCN1CCN(C)CC1)ncc1c3ccc(C#N)cc3[nH]c21
7. Cc1nnc(-c2ccc3occ(-c4ccc(C(C)O)cc4)c3c2)o1 (stereo not drawn)

1: 0; 2: 0; 3: 20; 4: 97.9; 5: 0; 6: 44; 7: 7

Can you give me %Inh for all of these, one by one?
1. Cn1ccc2ncnc(Oc3ccc(NC(=O)Nc4ccncc4)c(Cl)c3)c21
2. NCC(NC(=O)c1cc(-c2cn[nH]c2)c(-c2ccnc3[nH]ccc23)s1)c1ccccc1.O=C(O)C(F)(F)F.O=C(O)C(F)(F)F (stereo not drawn)

1: 0; 2: 71

###

For each of the compounds below, state its %Inh.
tested on: CDC2L2; details: concentration: 1 μM, replicates: in singlicate; n = 1
Numbers only, in %.

Reference set (3 entries):
>  <compound>
Fc1ccc(-c2nn3c(OCC(F)(F)F)cccc3c2-c2ccncc2)cc1

>  <measured-on>
CDC2L2

>  <%Inh, %>
11

$$$$
>  <compound>
CC(C)Oc1ccc2c(-c3ccnc(Nc4ccc(N5CCN(C)CC5)cc4)n3)cnn2n1

>  <measured-on>
CDC2L2

>  <%Inh, %>
51

$$$$
>  <compound>
COc1cc(Nc2nccc(N3CCC(NC(=O)c4cccc(NC(C)=O)c4)C3)n2)cc(OC)c1OC (stereo not drawn)

>  <measured-on>
CDC2L2

>  <%Inh, %>
2

$$$$

Value sought for every listed compound: %Inh.
1. c1ccc(-c2n[nH]cc2-c2ccnc3ccccc23)nc1
2. COc1ccc(Nc2nccc(N3CCC(NC(=O)Nc4cccc(C(C)=O)c4)C3)n2)cc1 (stereo not drawn)
3. COC(=O)Nc1nc2cc(Oc3ccc(NC(=O)Nc4cc(F)ccc4F)cc3)ccc2[nH]1.Cl
4. CN(C(=O)c1ccc(-c2cc(-c3c[nH]nc3-c3ccccn3)ccn2)cc1)C1CCOCC1
5. O=c1cc(N2CCOCC2)nc2n(Cc3cccc(C(F)(F)F)c3)ccn12

24
0
6
0
18

Lab note: measured %Inh of COCCNC(=O)c1ccc(-c2cc(C(=O)NC3CC3)cc(F)c2C)cc1 was 15

###

system: RSK3(Kin.Dom.1-N-terminal); construct: gene RPS6KA2; details: concentration: 1 μM, replicates: in singlicate; n = 1
measure: %Inh (%)
Give bare numbers, in %.

>  <compound>
CN1c2ccc(CNc3ccc(F)cc3)cc2-c2c(cnn2C)S1(=O)=O

>  <measure>
%Inh

>  <recorded-result>
3

$$$$
>  <compound>
COc1cc2ncn(-c3cc(OCc4sccc4Cl)c(C(N)=O)s3)c2cc1OC

>  <measure>
%Inh

>  <recorded-result>
10

$$$$

Go through the items and report each one's %Inh.
1. CSc1ccc(-c2cc3ncnc(SCC(=O)O)c3s2)cc1
2. Cc1cccc(-c2nc(-c3ccc(S(C)(=O)=O)cc3)sc2-c2ccncc2)c1

0
0

Sure, the documented %Inh for COCCNC(=O)c1ccc(-c2cc(C(=O)NC3CC3)cc(F)c2C)cc1 is 16

###

system: PRKCH; details: concentration: 1 μM, replicates: in singlicate; n = 1
Exercise: for every item that follows, state its recorded %Inh.
One number for each entry, in %.

Sample answers from the record:
>  <compound>
Cc1nnc(-c2ccc3occ(-c4ccc(C(C)O)cc4)c3c2)o1 (stereo not drawn)

>  <recorded-result>
0

$$$$
>  <compound>
Nc1nccc(-c2c(-c3ccc(F)cc3)ncn2C2CCN(CC(F)(F)F)CC2)n1

>  <recorded-result>
0

$$$$
>  <compound>
Fc1ccc(-c2nn3c(OCC(F)(F)F)cccc3c2-c2ccncc2)cc1

>  <recorded-result>
13

$$$$

Respectfully, I request %Inh for each entry included below.
1. NS(=O)(=O)CCc1cccc(Nc2nccc(-c3c(-c4cccc(NC(=O)c5c(F)cccc5F)c4)nn4ccccc34)n2)c1
2. CCn1cnc2c(N)ncnc21
3. NS(=O)(=O)c1cccc(-c2ccc3ncc(N4CCOCC4)nc3c2)c1
4. Fc1ccc(-c2ncn(CCCN3CCOCC3)c2-c2ccccn2)cc1
5. COc1ccc(COc2cc(-n3cnc4ccccc43)sc2C(N)=O)cc1

1: 32; 2: 9; 3: 8; 4: 0; 5: 0
